Tested on: CCRF-CEM leukemia
assay.explanation: NCI-60 one-dose screen, 48 h (100 = growth as untreated, 0 = no growth, -100 = all killed)
test.conditions: 10 µM unless noted
This is part of a sample that, as a whole, favours compounds with a hit. Of some 83,000 tested, about 20% had one in any assay.
Param threshold (40%) applies to growth; output 1 (yes) when value >= threshold, 0 (no) when value < threshold.

- molecule: "CN(C)c1ccc(N2Cc3ccccc3OC3=C2C(=O)c2c(O)ccc(O)c2C3=O)cn1"
  category: "0 (no)"
- molecule: "Cc1ccc(NC(=O)c2[nH]c(SCCN(C)C)nc2-c2ccc(F)cc2)cc1Nc1ccc2ncn(C)c(=O)c2c1"
  category: "1 (yes)"
- molecule: "COc1cc(Nc2ccnc3ccc(Br)cc23)cc(OC)c1OC"
  category: "0 (no)"
- molecule: "CC(C)c1[nH]ncc1-c1nc2ccc3[nH]ncc3c2c2c1CCCC2"
  category: "0 (no)"
- molecule: "CCN(CC)C(Cl)=Nc1ccc(Cl)cc1"
  category: "1 (yes)"
- molecule: "COc1c(C(=O)/C=C/c2ccc(C)o2)c(O)cc2occc12"
  category: "1 (yes)"
- molecule: "Clc1ccc(-c2nc(Br)cn3ccnc23)cc1"
  category: "1 (yes)"
- molecule: "CCOc1cccc(/C=N/NC(=O)c2ccc(Nc3ccnc(C(F)(F)F)c3)cc2)c1O"
  category: "0 (no)"
- molecule: "O=C(Nc1ccc(Cl)c(C(F)(F)F)c1)c1ccc(Nc2ccc(Cl)nn2)cc1"
  category: "1 (yes)"
- molecule: "CCN(CC)CCCC(C)Nc1cnc(C(=O)Nc2cc(C)cc3cccnc23)cn1 (stereo not given)"
  category: "1 (yes)"

Cited source for all entries: PubChem BioAssay (NCI)
